Quick list: Dmax per entry.
- experimental.system: HiBit-BRG1 (Homo sapiens)
- Construct: expressed in transfected cells
- Sequence (P51532 whole entry): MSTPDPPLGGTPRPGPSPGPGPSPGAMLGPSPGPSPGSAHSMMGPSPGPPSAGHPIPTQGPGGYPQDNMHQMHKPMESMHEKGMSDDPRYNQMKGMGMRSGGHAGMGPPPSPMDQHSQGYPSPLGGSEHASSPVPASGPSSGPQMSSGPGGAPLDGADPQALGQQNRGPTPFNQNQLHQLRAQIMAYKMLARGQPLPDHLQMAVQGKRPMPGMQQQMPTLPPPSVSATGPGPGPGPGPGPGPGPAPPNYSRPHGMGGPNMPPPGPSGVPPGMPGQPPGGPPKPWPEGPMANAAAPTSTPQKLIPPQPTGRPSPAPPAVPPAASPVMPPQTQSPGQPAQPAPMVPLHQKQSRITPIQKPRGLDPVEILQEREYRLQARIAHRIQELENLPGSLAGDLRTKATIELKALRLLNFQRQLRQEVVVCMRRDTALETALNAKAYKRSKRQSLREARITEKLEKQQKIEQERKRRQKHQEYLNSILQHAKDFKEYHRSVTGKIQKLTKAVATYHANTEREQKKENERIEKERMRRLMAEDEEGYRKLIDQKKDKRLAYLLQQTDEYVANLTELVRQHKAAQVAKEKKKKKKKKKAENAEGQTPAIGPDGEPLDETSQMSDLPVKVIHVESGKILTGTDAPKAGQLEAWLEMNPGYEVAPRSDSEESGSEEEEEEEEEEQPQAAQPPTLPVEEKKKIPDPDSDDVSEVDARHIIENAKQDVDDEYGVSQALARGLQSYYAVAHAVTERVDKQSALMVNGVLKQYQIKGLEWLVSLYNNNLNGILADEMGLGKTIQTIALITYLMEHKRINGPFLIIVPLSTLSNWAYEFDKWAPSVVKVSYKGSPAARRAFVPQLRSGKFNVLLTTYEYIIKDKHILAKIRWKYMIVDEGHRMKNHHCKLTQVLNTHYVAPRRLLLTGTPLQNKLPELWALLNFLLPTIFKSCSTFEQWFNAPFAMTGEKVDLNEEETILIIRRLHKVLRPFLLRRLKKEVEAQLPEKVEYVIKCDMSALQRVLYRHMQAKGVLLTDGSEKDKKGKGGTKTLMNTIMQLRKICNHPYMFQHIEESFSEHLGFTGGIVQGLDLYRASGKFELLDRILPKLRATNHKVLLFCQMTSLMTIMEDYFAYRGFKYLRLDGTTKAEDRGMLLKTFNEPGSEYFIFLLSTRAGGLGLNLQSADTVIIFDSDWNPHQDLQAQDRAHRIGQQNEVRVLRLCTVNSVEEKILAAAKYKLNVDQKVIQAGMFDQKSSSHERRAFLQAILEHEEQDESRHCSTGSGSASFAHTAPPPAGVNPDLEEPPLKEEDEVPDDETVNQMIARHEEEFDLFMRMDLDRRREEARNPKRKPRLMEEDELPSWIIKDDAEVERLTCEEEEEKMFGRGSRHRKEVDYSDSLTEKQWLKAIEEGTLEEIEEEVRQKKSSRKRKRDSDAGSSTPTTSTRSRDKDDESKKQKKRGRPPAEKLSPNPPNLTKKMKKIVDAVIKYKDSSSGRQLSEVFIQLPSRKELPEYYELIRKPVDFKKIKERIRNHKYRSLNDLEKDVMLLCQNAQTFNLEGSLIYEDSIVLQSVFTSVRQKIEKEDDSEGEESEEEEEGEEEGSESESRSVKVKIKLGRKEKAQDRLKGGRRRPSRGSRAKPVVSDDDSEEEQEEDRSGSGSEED
- assay.summary: HiBit-BRG1 cell-based degradation assay (Nano-Glo HiBiT Lytic Detection)
- assay.context: HeLa cells expressing HiBit-BRG1 and LgBit, 24 h; read-out: BRG1 HiBit Degradation Maximum (%)
Where a name gives a salt, the structure may show the parent alone.

Reference set, count: 5
CN(CCCCCOc1cccc2c1C(=O)N(C1CCC(=O)NC1=O)C2=O)Cc1ccc(CCN(C)c2cc(-c3ccccc3O)nnc2N)cc1 (centres unmarked) [Compound 145, formate] ... < 50%
Nc1nnc(-c2ccccc2O)cc1OCCc1ccc(C(=O)NCCCCCCCCNc2ccc3c(c2)C(=O)N(C2CCC(=O)NC2=O)C3=O)cc1 (centres unmarked) ... < 50%
Nc1nnc(-c2ccccc2O)cc1N1CCN(CCNC(=O)CCCCCCCCCCNc2cccc3c2C(=O)N(C2CCC(=O)NC2=O)C3=O)CC1 (centres unmarked) ... < 50%
Cc1ncsc1-c1ccc(CNC(=O)[C@@H]2C[C@@H](O)CN2C(=O)[C@@H](NC(=O)CCCCCCCCCCCC(=O)NCc2ccc(CCOc3cc(-c4ccccc4O)nnc3N)cc2)C(C)(C)C)cc1 ... < 50%
Cc1ncsc1-c1ccc(CNC(=O)[C@@H]2C[C@@H](O)CN2C(=O)[C@@H](NC(=O)COCCOCCOCCOCC(=O)NCc2ccc(CCOc3cc(-c4ccccc4O)nnc3N)cc2)C(C)(C)C)cc1 ... < 50%

Prompt: Recorded Dmax for Nc1nnc(-c2ccccc2O)cc1OCCc1ccc(CNC(=O)CCCOc2cccc3c2C(=O)N(C2CCC(=O)NC2=O)C3=O)cc1 (centres unmarked) with HiBit-BRG1 (Homo sapiens), please?
Response: < 50%

Prompt: Note, next up: Cc1ncsc1-c1ccc([C@H](C)NC(=O)[C@@H]2C[C@@H](O)CN2C(=O)[C@@H](c2cc(OCCN3CC(OC4CCN(C(=O)c5ccc(CCOc6cc(-c7ccccc7O)nnc6N)cc5)CC4)C3)no2)C(C)C)cc1
Response: > 50%

Prompt: Note, next up: Cc1ncsc1-c1ccc(CNC(=O)[C@@H]2C[C@@H](O)CN2C(=O)[C@@H](NC(=O)CCN2C[C@@H]3[C@H](C2)[C@H]3C(=O)NCc2ccc(CCOc3cc(-c4ccccc4O)nnc3N)cc2)C(C)(C)C)cc1
Response: < 50%

Prompt: Note, next up: Cc1ncsc1-c1ccc(CNC(=O)[C@@H]2C[C@@H](O)CN2C(=O)[C@@H](NC(=O)CCN2CCC3(CC2)CC(C(=O)NCc2ccc(CCOc4cc(-c5ccccc5O)nnc4N)cc2)C3)C(C)(C)C)cc1
Response: < 50%

Prompt: Note, next up: Cc1ncsc1-c1ccc([C@H](C)NC(=O)[C@@H]2C[C@@H](O)CN2C(=O)[C@@H](c2cc(OCCN3CC4CN(C(=O)c5ccc(CCOc6cc(-c7ccccc7O)nnc6N)cc5)C4C3)no2)C(C)C)cc1 (some centres unmarked)
Response: > 75%

Prompt: Note, next up: Cc1ncsc1-c1ccc(CNC(=O)[C@@H]2C[C@@H](O)CN2C(=O)[C@@H](NC(=O)CCN2CCC3(CCN(CCC(=O)NCc4ccc(CCOc5cc(-c6ccccc6O)nnc5N)cc4)CC3)CC2)C(C)(C)C)cc1
Response: < 50%

Prompt: Note, next up: Nc1nnc(-c2ccccc2O)cc1OCCc1ccc(CNC(=O)CCCCOc2cccc3c2CN(C2CCC(=O)NC2=O)C3=O)cc1 (centres unmarked)
Response: < 50%

Prompt: Note, next up: Cc1ncsc1-c1ccc(CNC(=O)[C@@H]2C[C@@H](O)CN2C(=O)[C@@H](NC(=O)CCCCCCCCCNC(=O)c2ccc(CCOc3cc(-c4ccccc4O)nnc3N)cc2)C(C)(C)C)cc1
Response: < 50%

Prompt: Note, next up: Cc1ncsc1-c1ccc(CNC(=O)[C@@H]2C[C@@H](O)CN2C(=O)[C@@H](NC(=O)CCN2CCC(CC(=O)NCc3ccc(CCOc4cc(-c5ccccc5O)nnc4N)cc3)CC2)C(C)(C)C)cc1
Response: < 50%

Prompt: Note, next up: Nc1nnc(-c2ccccc2O)cc1OCCc1ccc(C(=O)NCCCCCCC(=O)NCc2ccc(S(=O)(=O)Nc3cccc4c(Cl)c[nH]c34)cc2)cc1
Response: < 50%

Prompt: Note, next up: CN(CCCCCNc1ccc2c(c1)C(=O)N(C1CCC(=O)NC1=O)C2=O)Cc1ccc(CCOc2cc(-c3ccccc3O)nnc2N)cc1 (centres unmarked)
Response: > 50%

Prompt: Note, next up: Nc1nnc(-c2ccccc2O)cc1N1CCN(CCNC(=O)CCCCCCCOc2cccc3c2C(=O)N(C2CCC(=O)NC2=O)C3=O)CC1 (centres unmarked)
Response: < 50%

Prompt: Note, next up: Cc1ncsc1-c1ccc([C@H](C)NC(=O)[C@@H]2C[C@@H](O)CN2C(=O)[C@@H](c2cc(OCCN3CCC(CC(=O)NCc4ccc(CCOc5cc(-c6ccccc6O)nnc5N)cc4)CC3)no2)C(C)C)cc1
Response: > 75%

Prompt: Note, next up: Nc1nnc(-c2ccccc2O)cc1OCCc1ccc(CNC(=O)COc2cccc3c2C(=O)N(C2CCC(=O)NC2=O)C3=O)cc1 (centres unmarked)
Response: > 50%

Prompt: Note, next up: Cc1ncsc1-c1ccc([C@H](C)NC(=O)[C@@H]2C[C@@H](O)CN2C(=O)[C@@H](c2cc(OCCN3CCN(CCC(=O)NCc4ccc(CCOc5cc(-c6ccccc6O)nnc5N)cc4)CC3)no2)C(C)C)cc1
Response: > 50%
